# System: MDA-MB-231 triple-negative breast cancer cells
# protocol: Proliferation of MDA-MB-231 triple-negative breast cancer cells in vitro
# Format: cell-based, human
# condition-notes: 10 uM; MDA-MB-231 cells; data corresponds to FIG. 5
Decision: Cell proliferation (% control) as a function of parthenolide analog dose (10 uM). beneath 60 % control gives yes (1); Cell proliferation (% control) as a function of parthenolide analog dose (10 uM). meeting or exceeding 60 % control gives no (0).

# example entries with known answers
- C/C1=C\CC[C@@]2(C)O[C@H]2[C@H]2OC(=O)[C@@H](CNC(C)(C)C(=O)OCc3ccccc3)[C@@H]2CC1 [JD212]: no (0)
- C/C1=C\CC[C@@]2(C)O[C@H]2[C@H]2OC(=O)[C@@H](CNCC(=O)O)[C@@H]2CC1 [JD211]: no (0)
- C/C1=C\CC[C@@]2(C)O[C@H]2[C@H]2OC(=O)[C@@H](CN(C)CC(=O)O)[C@@H]2CC1 [JD214]: yes (1)
- C/C1=C\CC[C@@]2(C)O[C@H]2[C@H]2OC(=O)[C@@H](CNCC(=O)OCc3ccccc3)[C@@H]2CC1 [JD216]: yes (1)

API: the following record is the query input.
State whether 60 % control exceeds Cell proliferation (% control) as a function of parthenolide analog dose (10 uM). recorded for C/C1=C\CC[C@@]2(C)O[C@H]2[C@H]2OC(=O)[C@@H](CN(C)CC(=O)OCc3ccccc3)[C@@H]2CC1 [JD213] .
yes (1)

Data provenance: patent US10512630B2
